Every entry's value here was drawn from patent US8362066B2.

molecular target: Tau 441 (Homo sapiens); assay: ThS fluorescence assay, Tau 441 aggregation; type: biochemical; details: Tau 441 6 μM; compound 50 μM and 10 μM; 24 hours, 37° C., FIG. 15
Sequence (P10636 1-441 isoform P10636-8): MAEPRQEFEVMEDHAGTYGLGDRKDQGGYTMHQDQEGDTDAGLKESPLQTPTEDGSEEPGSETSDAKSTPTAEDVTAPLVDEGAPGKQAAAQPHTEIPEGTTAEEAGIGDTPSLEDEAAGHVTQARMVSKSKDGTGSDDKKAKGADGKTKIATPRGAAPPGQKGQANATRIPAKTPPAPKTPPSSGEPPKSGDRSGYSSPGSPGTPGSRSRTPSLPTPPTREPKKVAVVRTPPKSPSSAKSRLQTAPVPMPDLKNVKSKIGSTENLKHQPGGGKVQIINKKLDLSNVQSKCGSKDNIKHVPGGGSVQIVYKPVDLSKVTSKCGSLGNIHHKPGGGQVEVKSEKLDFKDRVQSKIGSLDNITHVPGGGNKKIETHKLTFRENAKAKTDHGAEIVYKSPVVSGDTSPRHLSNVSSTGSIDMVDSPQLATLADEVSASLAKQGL
ENDPOINT: inhibition of Tau 441 aggregation (ThS fluorescence)

>>> print(df.to_string())
                                chem_smiles            assay_system             result
0  O=C(O)c1cc2cc(-c3cc4ccccc4o3)ccc2c(Br)c1O  Tau 441 (Homo sapiens)  greatly inhibited
1  O=C(O)c1cc2cc(-c3ccc4c(c3)OCCO4)ccc2c(Br)c1O  Tau 441 (Homo sapiens)  greatly inhibited
2  O=C(O)c1cc2cc(-c3ccc4cc(O)ccc4c3)ccc2c(Br)c1O  Tau 441 (Homo sapiens)  greatly inhibited
